Target: S1-Fc (SARS-CoV-2 S1 protein, Fc fusion) (SARS-CoV-2, UniProt P0DTC2 16-685)
Assay: SPR (Biacore T200), S1 captured on anti-human Fc chip, scFv injected

{"binder": "2020EP53-D06 scFv (scFv) scFv: QVQLVQSGGGVVQPGRSLRLSCAASGFTFSSYAMHWVRQAPGKGLEWVAVISYDGSNKYYADSVKGRFTISRDNSKNTLYLQMNSLRAEDTAVYYCARDGEDGYNYISPFDYWGQGTLVTVSSGGGGSGGGGSGGGGSSYELTQPPSVSVAPGETARITCRGNDIGSKSVHWYQQKPGQAPVLVLYYDSDRPSGIPERFSGSNSGNTATLTISSVEAGDEADYYCQVWDIDVVFGGGTKLTVL", "Kd / nM": 7.84}
{"binder": "2020EP54-E10 scFv (scFv, also called 2020EP054-E10) scFv: QVQLVQSGAEVRKPGSSVKVSCKASGGTFSSFAISWVRQAPGQGLEWMGGIIPIFDTATYAQNFQGRVRMTADESTNTAYMELSSLTSEDTAVYYCARSTSYYDSRGDYKVGDFDYWGQGTLVTVSSGGGGSGGGGSGGGGSAIRMTQSPSSLSASVGDRVTITCQASQDISNYLNWYQQKPGKAPKLLIYDASNLETGVPSRFSGSGSGTDFTFTISSLQPEDIATYYCQQYDNLPLTFGGGTKVEIK", "Kd / nM": 3.35}
{"binder": "2020EP66-A07 scFv (scFv) scFv: EVQLVQSGAEVKKPGSSVKVSCKASGGTFSSYAISWVRQAPGQGLEWMGGIIPIFGTANYAQKFQGRVTITADESTSTAYMELSSLRSEDTAVYYCASGGDGYNYDYYYYGMDVWGQGTTVTVSSGGGGSGGGGSGGGGSSYELTQPPSVSVSPGQTATITCSGEKLGDKYSFWYQQKPGQSPVMVMYQDDQRPSGTPERFSGSNSGNTATLTISGTRATDEADYYCQAWDNSASVFGSGTKLTVL", "Kd / nM": 2.3}
